Data origin, for the record: patent US20100099610A1

molecular target: hGHQ141N (human, UniProt P01241 27-217); experiment: cell-based or functional assay
Sequence (P01241 27-217 Q167N): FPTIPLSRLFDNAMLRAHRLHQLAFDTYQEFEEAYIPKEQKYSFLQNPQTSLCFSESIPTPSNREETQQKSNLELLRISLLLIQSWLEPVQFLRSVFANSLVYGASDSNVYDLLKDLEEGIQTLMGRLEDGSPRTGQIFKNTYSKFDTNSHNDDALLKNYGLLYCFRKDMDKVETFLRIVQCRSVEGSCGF
MEASUREMENT_KIND: RSA Q40

What does the data say about its RSA Q40? Entry: S. ladakanum GlyPro-TGase mutant Y62M (enzyme) GPDSDERVTPPAEPLDRMPDPYRPSYGRAETIVNNYIRKWQQVYSHRDGRKQQMTEEQREWLSMGCVGVTWVNSGQYPTNRLAFAFFDEDKYKNELKNGRPRSGETRAEFEGRVAKDSFDEAKGFQRARDVASVMNKALENAHDEGAYLDNLKKELANGNDALRNEDARSPFYSALRNTPSFKDRNGGNHDPSKMKAVIYSKHFWSGQDRSGSSDKRKYGDPEAFRPDRGTGLVDMSRDRNIPRSPTSPGESFVNFDYGWFGAQTEADADKTVWTHGNHYHAPNGSLGAMHVYESKFRNWSDGYSDFDRGAYVVTFVPKSWNTAPDKVKQGWP 0.1 relative to wild type TGase
